B1: Twister Ribozyme (parent)
chain: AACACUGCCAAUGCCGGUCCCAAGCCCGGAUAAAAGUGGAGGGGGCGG

# Variants of: B1
# procedure text: self-cleavage, relative activity (ratio to wild type); higher = more cleavage; co-transcriptional
Assign self-cleavage to each entry below.

Sample records with self-cleavage:
mutation	self-cleavage
A1C G36U	0.173
A4C C9A	0.114
G24U C46G	0.081

Look at each variant and report its self-cleavage.
1. A23G
2. G29U G38U
3. U37C G47C
4. C19U C26A
5. C15A G43C

1. 0.634
2. 0.666
3. 0.341
4. 0.116
5. 0.17
